# protocolSummary: Toxicity liver stage against HepG2, at 10uM
# Type: cell-based
# Design: test concentration 10 uM, cell line HepG2-A16-CD81EGFP
# runParameters: human, HepG2-A16-CD81EGFP cells; read-out: INHIBITION
Form field: cytotoxicity at 10 µM (one value per entry).

molecule: Clc1ccc(CNc2cnn(CCN3CCOCC3)c2)cc1Cl
cytotoxicity at 10 µM (%): 3.2
--
molecule: COc1ccccc1C(NC(=O)C1CCC1)c1noc(C)n1 (configuration not stated)
cytotoxicity at 10 µM (%): 0.338
--
molecule: CN(C)C1CCN(C(=O)Cc2csc(-c3ncccn3)n2)CC1
cytotoxicity at 10 µM (%): -0.279
--
molecule: Cn1cnc2c1C(C(=O)N1CCCC1)N(S(C)(=O)=O)CC2 (configuration not stated)
cytotoxicity at 10 µM (%): 6.22
--
molecule: Cc1cc(SC(C)(C)C)ccc1NC(C)C(=O)NC(N)=O (configuration not stated)
cytotoxicity at 10 µM (%): -5.36
--
molecule: Cc1ccc(C(=O)NCC2COCCO2)c(=O)[nH]1 (configuration not stated)
cytotoxicity at 10 µM (%): 10.9
--
molecule: Cc1nc(C)n(CC2CN(CC(=O)Nc3nccs3)CCO2)n1 (configuration not stated)
cytotoxicity at 10 µM (%): -13.8
--
molecule: CCSc1cc(C(=O)NC2CCN(C(=O)c3ccncc3)CC2)ccn1
cytotoxicity at 10 µM (%): 5.88
--
molecule: Cc1cc(F)ccc1N1CCCC(NS(=O)(=O)CCCF)C1=O (configuration not stated)
cytotoxicity at 10 µM (%): -3.14
--
molecule: CCOCc1ccccc1NC(=O)NCC(C)(O)c1ccsc1 (configuration not stated)
cytotoxicity at 10 µM (%): -1.09
--
molecule: CC(C)c1nnsc1CNC(=O)C1CCN(C(=O)C2CCC2)CC1
cytotoxicity at 10 µM (%): -2.75
--
molecule: CN(CCC#N)C(=O)CN1CCC(c2cc3ccccc3[nH]2)CC1
cytotoxicity at 10 µM (%): 4.35

---

# protocolSummary: Toxicity liver stage against HepG2, at 10uM
# Assay type: cell-based
# Design: test concentration 10 uM, cell line HepG2-A16-CD81EGFP
# runParameters: human, HepG2-A16-CD81EGFP cells; read-out: INHIBITION
The entries below come with measured cytotoxicity at 10 µM values attached.

molecule: COC(=O)c1ccc(NC(=O)CCc2ccncc2)c(C)c1
cytotoxicity at 10 µM, %: 7.83
--
molecule: O=C(O)[C@]12CCCN(Cc3nccs3)[C@@H]1CCN(c1cnccn1)C2
cytotoxicity at 10 µM, %: -0.911
--
molecule: O=C(c1ccco1)N1CCC2(CCC(=O)N2Cc2ccncc2)CC1
cytotoxicity at 10 µM, %: 1.29
--
molecule: Cc1n[nH]cc1CNCC(O)c1ccc(F)c(F)c1 (centres undefined)
cytotoxicity at 10 µM, %: 6.8
--
molecule: Cc1nnc(SCCCNC(=O)Cc2ccc3c(c2)OCO3)s1
cytotoxicity at 10 µM, %: 7.75
--
molecule: CC1(C(=O)N2CCN(c3cnccn3)CC2)CNCCO1 (centres undefined)
cytotoxicity at 10 µM, %: 6.99
--
molecule: Cc1nc2c(N3CCC(O)(Cn4ccnc4)CC3)ncnc2o1
cytotoxicity at 10 µM, %: 6.35
--
molecule: Cc1cc(C(=O)NCCSC2CCCC2)no1
cytotoxicity at 10 µM, %: -2.21
--
molecule: O=C1CC(c2cccnc2)c2c(c(C(=O)O)cn2-c2ccc(Cl)cc2)N1 (centres undefined)
cytotoxicity at 10 µM, %: -0.462
--
molecule: CC(C)c1nc(C2CCCN2Cc2cc(=O)n(C)c(=O)n2C)no1 (centres undefined)
cytotoxicity at 10 µM, %: -10.7
--
molecule: Clc1ccccc1-c1nnc(CSCCN2CCOCC2)o1
cytotoxicity at 10 µM, %: 0.728
--
molecule: CCn1c(C2CCN(C(=O)c3cc(CC(C)C)no3)CC2)nn(C)c1=O
cytotoxicity at 10 µM, %: -2.51
--
molecule: Cc1nn(C)c(C)c1C1CCCN1C(=O)c1cc[nH]n1 (centres undefined)
cytotoxicity at 10 µM, %: 1.35
--
molecule: CCN(CC)C(CNCc1ccc(OC)c(F)c1)c1ccco1 (centres undefined)
cytotoxicity at 10 µM, %: 15.2
--
molecule: CCn1cnnc1CNC(=O)N1CCCC1
cytotoxicity at 10 µM, %: -3.3
--
molecule: COc1cccc(CN2CCN(Cc3ccc4nonc4c3)CC2=O)c1
cytotoxicity at 10 µM, %: -1.98
--
molecule: CCSc1ncc(CN(Cc2cnn(C)c2)CC(C)C)cn1
cytotoxicity at 10 µM, %: -7.53
--
molecule: CN1CCC(C(=O)N2CCC(=Cc3cccc(F)c3)CC2)CC1=O (centres undefined)
cytotoxicity at 10 µM, %: -2.19
--
molecule: CN(Cc1ccncc1)CC1CCCN(CCc2ccc(Cl)cc2)C1 (centres undefined)
cytotoxicity at 10 µM, %: 1.06
--
molecule: Cc1ccc(CN2CCCn3c(nc(Cn4ccnc4)cc3=O)C2)s1
cytotoxicity at 10 µM, %: 4.24
--
molecule: O=C(NCCC1=CCCCC1)c1ccc(-n2cccc2)nc1
cytotoxicity at 10 µM, %: -1.46
--
molecule: CCN(CC)Cc1cc(=O)n2c(n1)CN(S(=O)(=O)C1CC1)CCC2
cytotoxicity at 10 µM, %: 6.95
--
molecule: O=C(CCNc1ccc(Br)cn1)NCc1ccncc1
cytotoxicity at 10 µM, %: -0.222
--
molecule: CCCS(=O)(=O)N1CC[C@H]2O[C@H](c3nnc(C)o3)CC[C@H]21
cytotoxicity at 10 µM, %: -77.4

---

Entries and their measured cytotoxicity at 10 µM follow.
# protocolSummary: Toxicity liver stage against HepG2, at 10uM
# Type: cell-based
# Set-up: test concentration 10 uM, cell line HepG2-A16-CD81EGFP
# runParameters: human, HepG2-A16-CD81EGFP cells; read-out: INHIBITION

compound: O=c1cc(N2CCNCC2)cnn1CCCn1cccn1
cytotoxicity at 10 µM, %: -48
--
compound: Fc1cccnc1Oc1cc(F)c(CN2CCCC2)c(Cl)c1
cytotoxicity at 10 µM, %: 3.3
--
compound: O=C(CCN1CCOC1=O)N(Cc1ccncc1)CC1CCCO1 (stereo not drawn)
cytotoxicity at 10 µM, %: 0.606
--
compound: CN(Cc1ccc(Br)c2cccnc12)S(C)(=O)=O
cytotoxicity at 10 µM, %: 2.92
--
compound: CC(=O)NCC(=O)N1Cc2c(-c3cccc(C)c3)nc(N)nc2C1C (stereo not drawn)
cytotoxicity at 10 µM, %: 7.66
--
compound: CC(O)C(=O)N1CCC(c2nccn2Cc2cscn2)CC1 (stereo not drawn)
cytotoxicity at 10 µM, %: 0.557
--
compound: CCc1oc(C(=O)NCCc2nc(C(=O)O)cs2)cc1CN1CCCC1
cytotoxicity at 10 µM, %: 19.3
--
compound: FC(F)(F)c1cc(C2CCCN(c3ncccn3)C2)n2ccnc2n1 (stereo not drawn)
cytotoxicity at 10 µM, %: 10.4
--
compound: CC(C)c1cc(C2CCCN2C(=O)CN2C(=O)OC(C)(C)C2=O)no1 (stereo not drawn)
cytotoxicity at 10 µM, %: -7.71
--
compound: Cc1ccc(CN2CCOC3(COCCN(S(C)(=O)=O)C3)C2)o1 (stereo not drawn)
cytotoxicity at 10 µM, %: 11.7
--
compound: Cc1noc(CNC(=O)CN(C)c2nc3c(F)cccc3s2)n1
cytotoxicity at 10 µM, %: 3.76
--
compound: O=C(CSc1ccccn1)N1C[C@@H]2CC[C@H]1CN(Cc1cscn1)C2
cytotoxicity at 10 µM, %: 1.93
--
compound: CCNc1ccnc(-c2ccnc3c2ccn3C)n1
cytotoxicity at 10 µM, %: 11.2
--
compound: COC(=O)C1CCN(C(=O)c2cccc(NS(C)(=O)=O)c2C)CC1
cytotoxicity at 10 µM, %: -6.71
--
compound: CC(C)NC(=O)C1Cc2nc(-c3ccsc3)sc2N1CC1CC1 (stereo not drawn)
cytotoxicity at 10 µM, %: 6.61
--
compound: O=C(C(c1ccccc1)N1CCc2cncnc2C1)N1CCCCC1 (stereo not drawn)
cytotoxicity at 10 µM, %: 1.26
--
compound: CCN1CC(CN(C)Cc2nc(-c3ccoc3)oc2C)CC1=O (stereo not drawn)
cytotoxicity at 10 µM, %: -5.13
--
compound: O=C(NC1CC1)N1C[C@@H]2CCN(C(=O)c3cscn3)[C@@H]2C1
cytotoxicity at 10 µM, %: -0.025
--
compound: COC(=O)CN(C(=O)c1cc(C)c(F)cc1F)c1cccc(C)n1
cytotoxicity at 10 µM, %: 6.9
--
compound: CCc1nnc(C(C)N2CCCN(C(=O)OCC(C)C)CC2)o1 (stereo not drawn)
cytotoxicity at 10 µM, %: 4.96
--
compound: CCCC(=O)N(C)c1cc(C#N)c2ccccc2n1
cytotoxicity at 10 µM, %: -7.55
--
compound: CC(C)S(=O)(=O)CCN1CCN(C(C#N)c2ccccc2)CC1 (stereo not drawn)
cytotoxicity at 10 µM, %: 0.401
--
compound: COc1ccc(OCc2nc3cc4c(cc3c(=O)o2)OCCCO4)cc1
cytotoxicity at 10 µM, %: 5.73
--
compound: CCN1CCCC(O)(CN(C)Cc2c(C)nn(C)c2C)C1 (stereo not drawn)
cytotoxicity at 10 µM, %: 4.95
--
compound: Cc1nc(CN(C)C2CCN(Cc3nc4ccccc4s3)C2)no1 (stereo not drawn)
cytotoxicity at 10 µM, %: -4.27
--
compound: CN(Cc1ccc2c(c1)OCO2)C(=O)c1ccc(=O)n(C)c1
cytotoxicity at 10 µM, %: -9.17
--
compound: CN(C)C(CNC(=O)c1ccc(-n2cnnn2)cc1)c1ccccc1Cl (stereo not drawn)
cytotoxicity at 10 µM, %: -8.16
--
compound: CCS(=O)(=O)NC[C@]12COC[C@H]1CN(Cc1cccc(OC)c1)C2
cytotoxicity at 10 µM, %: -6.23
--
compound: CSCc1noc(CNC(=O)C2CCN(C(=O)C3CCCC3)CC2)n1
cytotoxicity at 10 µM, %: 9.98
--
compound: CC1CCN(C(=O)c2cnc(CC3CCCN(C)C3)cn2)CC1 (stereo not drawn)
cytotoxicity at 10 µM, %: -11.7
--
compound: Cc1nn(C)cc1CN1CCc2c(nc(-c3ccccn3)[nH]c2=O)C1
cytotoxicity at 10 µM, %: -32.1
--
compound: CNC(=O)C1Cn2ccnc2C2(CCN(Cc3c(C)noc3C)CC2)O1 (stereo not drawn)
cytotoxicity at 10 µM, %: -68.6
--
compound: CCn1ncc(Cl)c1CN(C)C(=O)CCn1ncc(Br)c1C
cytotoxicity at 10 µM, %: 2.93
--
compound: Cc1nc(C)n(Cc2cccc(NC(=O)N(C)CCC(C)O)c2)n1 (stereo not drawn)
cytotoxicity at 10 µM, %: -6.64
--
compound: CCCC1(CO)CCCN(Cc2nccs2)C1 (stereo not drawn)
cytotoxicity at 10 µM, %: 1.41
--
compound: Cn1cccc(NC(=O)NCCc2cccc(O)c2)c1=O
cytotoxicity at 10 µM, %: -43.6
--
compound: Cc1cc2nc(C(C)C)cc(N(C)CC3CCN(C(C)C)C3)n2n1 (stereo not drawn)
cytotoxicity at 10 µM, %: 7.26
--
compound: COc1ccc(N2CCOCC3(CCCN(c4cnccn4)C3)C2)cc1 (stereo not drawn)
cytotoxicity at 10 µM, %: 4.29
--
compound: CC1CCCN(C(=O)c2cc(-c3ccco3)cs2)C1 (stereo not drawn)
cytotoxicity at 10 µM, %: 7
--
compound: CCc1cnc(C)nc1NC(C)C(=O)Nc1cc(F)ccc1C (stereo not drawn)
cytotoxicity at 10 µM, %: -0.682
--
compound: CCN(C)CC(C)Cn1cnc(-c2ccccc2)c1-c1cncn1CC (stereo not drawn)
cytotoxicity at 10 µM, %: 1.33
--
compound: O=C1CC2(CCCC2)CC(=O)N1CCn1cnnc1
cytotoxicity at 10 µM, %: -0.54
--
compound: Cn1ccc(C(=O)NCc2ccc(N3CCCC3)nc2)cc1=O
cytotoxicity at 10 µM, %: 0.12
--
compound: COc1cc(NCC(O)CN2CCCCCC2)ncn1 (stereo not drawn)
cytotoxicity at 10 µM, %: 2.8
--
compound: CS(=O)(=O)N1CC2(CCN(CC3CCCCC3)C2)Cc2ccccc21 (stereo not drawn)
cytotoxicity at 10 µM, %: 23.3
--
compound: NC(=O)CC1CCN(c2ncnc3cccc(F)c23)CC1
cytotoxicity at 10 µM, %: 3.39
--
compound: CCC(C)N(CCOC)Cc1nc2c(cnn2C)c(=O)[nH]1 (stereo not drawn)
cytotoxicity at 10 µM, %: -12.4
--
compound: CCc1cnc(C)nc1NCCN1CCC(O)CC1
cytotoxicity at 10 µM, %: 1.78
